B1: CPEB3 Ribozyme (parent)
chain: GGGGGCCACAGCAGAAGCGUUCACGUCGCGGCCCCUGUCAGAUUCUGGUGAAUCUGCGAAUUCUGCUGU

# Variants of: B1
# assay-notes: self-cleavage, relative activity (ratio to wild type); higher = more cleavage; co-transcriptional
Note to self: values exactly at 0.5 are T. So self-cleavage at or above 0.5 is T, below is F.

Worked set:
Enquiry: Could you verify whether the entry G3A C39G shows self-cleavage of no less than 0.5?
Return: F

Enquiry: Identify whether the reported self-cleavage of the following variant is 0.5 or greater: G14A C35G
Return: F

Enquiry: Can C9U C12A be said to have self-cleavage at or above 0.5?
Return: T

Enquiry: Hi, just wondering whether G1U U38A shows self-cleavage of 0.5 or higher.
Return: F

Enquiry: Does the variant A23G C39U have recorded self-cleavage that is 0.5 or more?
Return: T

More entries:
Enquiry: Check if self-cleavage >= 0.5 (inclusive). Item: C29U U36C
Return: F

These data points were gathered from the RNAGym collection of RNA variant scans (doi:10.7554/elife.80360).
